system: HeLa S3 cells; test: In vitro cytotoxicity assay (CellTiter 96 MTS); format: cell-based, human
quantity.name: EC50

In [3]: df
Out[3]:
                                   compound  assay_value
0  C[n+]1cccc(-c2c3nc(c(-c4ccc[n+](C)c4)c4ccc([nH]4)c(-c4ccc[n+](C)c4)c4nc(c(-c5ccc[n+](C)c5)c5ccc2[nH]5)C=C4)C=C3)c1      43.4 µM

====

Test system: HeLa S3 cells
Assay: In vitro cytotoxicity assay (CellTiter 96 MTS)
Format: cell-based, human
Settings: HeLa S3, 4 days, MTS, FIG. 8; read-out: cytotoxicity ED50
Method: […] In vitro cytotoxicity assays were performed using the CellTiter 96 Non-Radioactive Cell Proliferation Assay (Promega Corp., Madison, Wis.). […] Absorbance was measured using a Wallac Victor Multilabel Counter (Perkin Elmer, Shelton, Conn.) at 490 nm. Data were expressed as the percentage of survival of control calculated from the absorbance corrected for background absorbance. […]
pEC50: −log10 of the molar value.
quantity.name: pEC50

>>> df
                                   compound  quantity_name  assay_value
0  C[n+]1ccc(-c2c3nc(c(-c4cc[n+](C)cc4)c4ccc([nH]4)c(-c4cc[n+](C)cc4)c4ccc([nH]4)c(-c4cc[n+](C)cc4)c4nc2C=C4)C=C3)cc1          pEC50         4.59
